compounds and their reported minimal inhibitory concentrations ΔrrnB 1491A
- System: M. smegmatis ΔrrnB 1491A (16S rRNA position 1491 A, eukaryotic cytosolic ribosomes)
- METHOD SUMMARY: MIC, recombinant M. smegmatis with mutant ribosomes 1491A
- Assay type: cell-based, Mycobacterium smegmatis
- CONDITIONS: M. smegmatis ΔrrnB 1491A mutant ribosomes; 72 h at 37° C.
METRIC: minimal inhibitory concentrations ΔrrnB 1491A

{"columns": ["COMPOUND", "TARGET", "READOUT VALUE"],
 "data": [
  ["CC1OC[C@H]2O[C@H](O[C@H]3[C@H](O[C@@H]4O[C@H](CO)[C@@H](O[C@H]5O[C@@H](CN)[C@@H](O)[C@H](O)[C@H]5N)[C@H]4O)[C@@H](O)[C@H](N)C[C@@H]3N)[C@H](N)[C@@H](O)[C@@H]2O1 (stereo partly shown)", "M. smegmatis ΔrrnB 1491A (16S rRNA position 1491 A, eukaryotic cytosolic ribosomes)", ">512 µg/mL"],
  ["CC(=O)O.CC(=O)O.CC(=O)O.NC[C@@H]1O[C@H](O[C@H]2[C@@H](O)[C@H](O[C@@H]3[C@@H](O)[C@H](N)C[C@H](N)[C@H]3O[C@H]3O[C@@H]4COC(c5cccc([N+](=O)[O-])c5)O[C@H]4[C@H](O)[C@H]3N)O[C@@H]2CO)[C@H](N)[C@@H](O)[C@@H]1O (stereo partly shown)", "M. smegmatis ΔrrnB 1491A (16S rRNA position 1491 A, eukaryotic cytosolic ribosomes)", "256 µg/mL"],
  ["NC[C@@H]1O[C@H](O[C@H]2[C@@H](O)[C@H](O[C@@H]3[C@@H](O)[C@H](N)C[C@H](N)[C@H]3O[C@H]3O[C@@H]4CO[C@@H](C5CCCCC5)O[C@H]4[C@H](O)[C@H]3N)O[C@@H]2CO)[C@H](N)[C@@H](O)[C@@H]1O", "M. smegmatis ΔrrnB 1491A (16S rRNA position 1491 A, eukaryotic cytosolic ribosomes)", ">512 µg/mL"],
  ["NCC1OC(OC2C(CO)OC(OC3C(O)C(N)CC(N)C3OC3OC(COCc4ccccc4)C(O)C(O)C3N)C2O)C(N)C(O)C1O (stereo not shown)", "M. smegmatis ΔrrnB 1491A (16S rRNA position 1491 A, eukaryotic cytosolic ribosomes)", ">512 µg/mL"]
]}
